Each item that follows carries a reported cell viability.
Test system: SEM cells
assay_protocol: cell viability relative to DMSO control; higher = less cytotoxic
measurement_context: HPLM + 10% dialyzed FBS; 48 h; 5.12 µM

# molecule, cell viability / %
data = [
    ("COc1ccc(-n2nc(C(N)=O)c3c2C(=O)N(c2ccc(N4CCCCC4=O)cc2)CC3)cc1", 133),
    ("COc1cc2nccc(Oc3ccc(NC(=O)NC4CC4)c(Cl)c3)c2cc1C(N)=O", 69.1),
    ("COc1cc2ncnc(Nc3ccc(F)c(Cl)c3)c2cc1NC(=O)/C=C/CN1CCCCC1", 76.7),
    ("CSCC[C@@H](NC(=O)[C@@H](Cc1ccccc1)NC(=O)CNC(=O)CNC(=O)[C@@H](N)Cc1ccc(O)cc1)C(=O)O", 98.9),
    ("O=C(NC[C@H](O)CO)c1ccncc1Nc1ccc(I)cc1F", 85.7),
    ("COc1ccc(C(C)=O)c(O)c1", 114),
    ("COc1ccc(-c2nc(N3CCOCC3)c3sc(CN(C)c4ncc(C(=O)NO)cn4)cc3n2)cn1", 6.01),
    ("Nc1nc(Cl)nc2c1ncn2[C@H]1C[C@H](O)[C@@H](CO)O1", 11.6),
    ("O=C(Nc1c(Cl)cncc1Cl)c1ccc(OC(F)F)c(OCC2CC2)c1", 100),
    ("CN1CCCN=C1/C=C/c1cccs1.O=C(O)c1cc2ccccc2c(Cc2c(O)c(C(=O)O)cc3ccccc23)c1O", 113),
    ("CN(C)[C@H]\\1[C@@H]2C[C@H]3C(=C(O)\\[C@]2(O)C(=O)\\C(=C1O)C(N)=O)/C(=O)C4=C(O)C=CC=C4[C@@]3(C)O", 85.2),
    ("N=C(NCCCCCCNC(=N)NC(=N)Nc1ccc(Cl)cc1)NC(=N)Nc1ccc(Cl)cc1", 92.2),
    ("CC(C)C(=O)Nc1ccc([N+](=O)[O-])c(C(F)(F)F)c1", 138),
    ("CCOC(=O)\\C1=C(/C)N\\C2=C(C1C3=CC=C(C=C3)C4=CC=CC=C4)\\C(=O)CC(C)(C)C2 (stereo not drawn)", 105),
    ("CNC1CCC(N(Cc2cccc(-c3ccncc3)c2)C(=O)c2sc3c(F)ccc(F)c3c2Cl)CC1 (stereo not drawn)", 93.3),
    ("Cc1cc(C(C)(C)C)c(O)c(C)c1CC1=NCCN1", 66.6),
    ("C\\C1=C(\\C=C(\\C#N)C(=O)N1)C2=CC=NC=C2", 96.7),
    ("COCCCN1CCC(NC(=O)c2cc(Cl)c(N)c3c2OCC3)CC1", 147),
]

###

Test system: SEM cells
assay_protocol: cell viability relative to DMSO control; higher = less cytotoxic
measurement_context: HPLM + 10% dialyzed FBS; 48 h; 0.00702 µM
Each item that follows carries a reported cell viability.

# molecule, readout_unit, cell viability
measured = [
    ("O=C(O)C1=NC(C(=O)O)CC(/C=C/N2c3cc(O)c(OC4OC(CO)C(O)C(O)C4O)cc3CC2C(=O)O)=C1 (centres undefined)", "%", 110),
    ("COc1ccc(C2CNC(=O)C2)cc1OC1CCCC1 (centres undefined)", "%", 91.4),
    ("C[C@]12CCC(=O)C=C1CC[C@@H]1[C@@H]2CC[C@@]2(C)[C@H]1CC[C@]2(C)O", "%", 86.5),
    ("O=C(O[C@H]1C[C@H]2CC[C@@H](C1)[N+]21CCCC1)C(O)(c1ccccc1)c1ccccc1.[Cl-]", "%", 104),
    ("C[S+]([O-])(=O)C1=CC=C(C=C1)C/2=C(/C(=O)OC2)C3=CC=CC=C3", "%", 105),
    ("COc1ccc(C(C)=O)c(O)c1", "%", 110),
    ("C=C[C@H]1CN2CC[C@H]1C[C@H]2[C@H](O)c1ccnc2ccc(OC)cc12", "%", 93.3),
    ("CC(N)C12CC3CC(CC(C3)C1)C2 (centres undefined)", "%", 96.8),
    ("COc1ncc(-c2ccc3nccc(-c4ccnnc4)c3c2)cc1N[S+](=O)([O-])c1ccc(F)cc1F", "%", 60.5),
    ("Cc1cnc(NC(=O)Nc2cc(Br)c(C)cc2OC[C@@H]2CNCCO2)cn1", "%", 110),
    ("CN1\\C(=C(\\O)C2=CC=CC=C2[S+]1([O-])=O)C(=O)NC3=NC=C(C)S3", "%", 98.2),
    ("N/C1=N/C(=O)C/2=C(NC[C@@H](CNC3=CC=C(C=C3)C(=O)N[C@@H](CCC([O-])=O)C([O-])=O)N2C=O)\\N1", "%", 120),
    ("C\\C1=C(\\C=C(C#N)/C(=O)N1)C2=C[N]3C=CN=C3C=C2", "%", 81.6),
    ("Nc1ncnc2c1c(-c1cnc3[nH]ccc3c1)nn2C1CCCC1", "%", 127),
    ("CN(C)CCc1ccc(O)cc1", "%", 134),
    ("C[C@@H]\\1CC(=O)N\\N=C1C2=CC=C(NN=C(C#N)C#N)C=C2", "%", 101),
    ("CN1CCN(c2ccc([N+](=O)[O-])c3no[n+]([O-])c23)CC1", "%", 87.3),
    ("CN(C)[C@H]\\1[C@@H]2C[C@H]3C(=C(O)\\[C@]2(O)C(=O)\\C(=C1O)C(N)=O)/C(=O)C4=C(O)C=CC=C4[C@@]3(C)O", "%", 81.5),
    ("Cc1cnc(-c2cc(N3CCN(C(=O)CC[S+](C)(=O)[O-])CC3)ncc2Cl)c(C)c1", "%", 118),
]

###

Each item that follows carries a reported AUC of viability dose-response curve.
System: P12-Ichikawa
assay_protocol: AUC of viability dose-response curve (% viability x log10 dose units); higher = less sensitive
measurement_context: RPMI 5 mM glucose + 10% dialyzed FBS; 48 h

# compound, study_target, AUC of viability dose-response curve
data = [
    ("CCOC(=O)\\C1=C(/C)N\\C2=C(C1C3=CC=C(C=C3)C4=CC=CC=C4)\\C(=O)CC(C)(C)C2 (centres undefined)", "P12-Ichikawa", 444),
    ("CC(C)(Oc1ccc(C2CC2(Cl)Cl)cc1)C(=O)O (centres undefined)", "P12-Ichikawa", 453),
    ("CNC1CCC(N(Cc2cccc(-c3ccncc3)c2)C(=O)c2sc3c(F)ccc(F)c3c2Cl)CC1 (centres undefined)", "P12-Ichikawa", 463),
    ("FC(F)c1nc2ccccc2n1-c1nc(N2CCOCC2)nc(N2CCOCC2)n1", "P12-Ichikawa", 394),
    ("OC1CCC(Nc2ncc3nc(Nc4c(F)cc(F)cc4F)n([C@@H]4CCOC4)c3n2)CC1 (some centres undefined)", "P12-Ichikawa", 468),
    ("O=c1[nH]c2ccccc2n1C1CCN(Cc2ccc(-c3nc4cc5nc[nH]c5cc4nc3-c3ccccc3)cc2)CC1", "P12-Ichikawa", 443),
    ("OC1=CC2=C(C(=C1)O)C(=O)\\C=C(/O2)C3=CC=CC=C3", "P12-Ichikawa", 446),
    ("C[S+](=O)([O-])N1CCc2c(-c3cnc(N)nc3)nc(N3CCOCC3)nc21", "P12-Ichikawa", 440),
    ("COC1=CC=C(C=C1)C/2=C/OC3=C(C(=CC(=C3)O)O)C2=O", "P12-Ichikawa", 453),
    ("COC(=O)[C@@H]1[C@H]2C[C@H]3c4[nH]c5ccccc5c4CCN3C[C@@H]2CC[C@@H]1O", "P12-Ichikawa", 402),
    ("COc1ccc(-c2nc(N3CCOCC3)c3sc(CN(C)c4ncc(C(=O)NO)cn4)cc3n2)cn1", "P12-Ichikawa", 172),
    ("S=P(N1CC1)(N1CC1)N1CC1", "P12-Ichikawa", 448),
    ("Fc1ccc([C@@H]2CCNC[C@H]2COc2ccc3c(c2)OCO3)cc1", "P12-Ichikawa", 393),
    ("CN(NC(=O)CC(=O)NN(C)C(=S)c1ccccc1)C(=S)c1ccccc1", "P12-Ichikawa", 217),
    ("N#Cc1c(NC(=O)c2cccc3ccccc23)sc2c1CCCC2", "P12-Ichikawa", 346),
    ("OC(CN1CCC(Cc2ccc(F)cc2)CC1)c1ccc(Cl)cc1 (centres undefined)", "P12-Ichikawa", 451),
    ("O=C(Nc1ccc(F)c(C(F)(F)F)c1)Nc1nnc(-c2ccncc2)s1", "P12-Ichikawa", 465),
    ("O=C(Nc1c(Cl)cncc1Cl)c1ccc(OC(F)F)c(OCC2CC2)c1", "P12-Ichikawa", 466),
    ("Cc1[nH]c2ccccc2c1CCNCc1ccc(/C=C/C(=O)NO)cc1", "P12-Ichikawa", 304),
]
